Tested on: HIV-1
Test: Single-round infectious HIV-1 luciferase reporter virus infection of HeLa CD4 cells
Assay type: cell-based
Conditions: Human immunodeficiency virus 1, HeLa, 72 h
// values below are reported EC50

Past entries and their recorded results:
molecule | measurement.target | observed
COc1ncc(OC)c2c(C(=O)C(=O)N3CCN(c4c(-c5ccccc5)c(=O)c4=O)C[C@H]3C)c[nH]c12 [Number 32] | HIV-1 | 50 to 500 nM
COc1ncc(OC)c2c(C(=O)C(=O)N3CCN(c4c(-c5ccc(F)cc5)c(=O)c4=O)CC3)c[nH]c12 [Number 41] | HIV-1 | 50 to 500 nM
CCN(Cc1ccccc1)c1c(N2CCN(C(=O)C(=O)c3c[nH]c4cccc(F)c34)CC2)c(=O)c1=O [Number 22] | HIV-1 | > 5000 nM

**Q:** Which measured EC50 belongs to COc1ncc(OC)c2c(C(=O)C(=O)N3CCN(c4c(-c5ccccc5)c(=O)c4=O)C[C@@H]3C)c[nH]c12 [Number 33] , tested on HIV-1?
**A:** 50 to 500 nM

**Q:** Param readout = EC50; param system = HIV-1; param query = COc1ncc(OC)c2c(C(=O)C(=O)N3CCN(c4c(-c5nccs5)c(=O)c4=O)CC3)c[nH]c12 [Number 43] ; response: value
**A:** 500 to 5000 nM

**Q:** API: value(readout= EC50, system= HIV-1, query= COc1cnc(Br)c2[nH]cc(C(=O)C(=O)N3CCN(c4c(-c5ccccc5)c(=O)c4=O)CC3)c12 [Number 34] )
**A:** 50 to 500 nM

**Q:** Give recorded EC50 with HIV-1 for the following molecule: COc1cnc(Cl)c2[nH]cc(C(=O)C(=O)N3CCN(c4c(-c5ccccc5)c(=O)c4=O)CC3)c12 [Number 31]
**A:** 50 to 500 nM

**Q:** Fill in the recorded EC50 for this molecule, with HIV-1 as test system: COc1cccc(-c2c(N3CCN(C(=O)C(=O)c4c[nH]c5c(OC)ncc(OC)c45)CC3)c(=O)c2=O)c1 [Number 42]
**A:** 50 to 500 nM

**Q:** GET /values?readout=EC50&system=HIV-1&item= CCCN(CCC)c1c(N2CCN(C(=O)C(=O)c3c[nH]c4cccc(F)c34)CC2)c(=O)c1=O [Number 25]
**A:** > 5000 nM

**Q:** Query for HIV-1: what EC50 does the record show for COc1ncc(OC)c2c(C(=O)C(=O)N3CCN(c4c(-c5ccccc5)c(=O)c4=O)[C@H](C)C3)c[nH]c12 [Number 39] ?
**A:** 50 to 500 nM

**Q:** Please tell me: EC50 of COc1cnc(-n2cncn2)c2[nH]cc(C(=O)C(=O)N3CCN(c4c(-c5ccccc5)c(=O)c4=O)CC3)c12 [Number 36] , system HIV-1?
**A:** 50 to 500 nM

**Q:** What reported EC50 corresponds to COc1cnc(-n2ccc(C)n2)c2[nH]cc(C(=O)C(=O)N3CCN(c4c(-c5ccccc5)c(=O)c4=O)CC3)c12 [Number 40] on HIV-1?
**A:** 50 to 500 nM

**Q:** Observed EC50 on HIV-1 for O=C(C(=O)N1CCN(c2c(-c3ccco3)c(=O)c2=O)CC1)c1c[nH]c2cccc(F)c12 [Number 28] , please.
**A:** 500 to 5000 nM

**Q:** Lab request: please report EC50 under test system HIV-1 for COc1ncc(OC)c2c(C(=O)C(=O)N3CCN(c4c(-c5ccccc5)c(=O)c4=O)[C@@H](C)C3)c[nH]c12 [Number 38]
**A:** 50 to 500 nM
